Target: EtfAB:bcd (crotonyl-CoA-dependent NADH:ferredoxin oxidoreductase), NADH site on the bifurcating FAD of EtfAB (Megasphaera elsdenii, UniProt G0VLZ5+G0VLZ6)
Construct: gene MELS_2127; full-length recombinant EtfAB and bcd, each with C-terminal Strep-II tag, E. coli BL21, mixed equimolar; assignment of Mels_2126 to EtfA and Mels_2127 to EtfB is inferred from the printed order; with Electron transfer flavoprotein subunit alpha; Acyl-CoA dehydrogenase, short-chain specific (butyryl-CoA dehydrogenase)
Sequence (G0VLZ6 1-270): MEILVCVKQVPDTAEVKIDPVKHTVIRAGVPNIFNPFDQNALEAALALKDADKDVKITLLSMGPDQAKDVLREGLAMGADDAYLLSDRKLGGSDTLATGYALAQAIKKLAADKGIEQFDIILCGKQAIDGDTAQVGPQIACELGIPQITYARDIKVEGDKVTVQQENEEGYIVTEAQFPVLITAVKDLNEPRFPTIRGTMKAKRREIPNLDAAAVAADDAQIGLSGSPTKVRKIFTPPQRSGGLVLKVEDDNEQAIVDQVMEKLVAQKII
Sequence (G0VLZ5 1-338): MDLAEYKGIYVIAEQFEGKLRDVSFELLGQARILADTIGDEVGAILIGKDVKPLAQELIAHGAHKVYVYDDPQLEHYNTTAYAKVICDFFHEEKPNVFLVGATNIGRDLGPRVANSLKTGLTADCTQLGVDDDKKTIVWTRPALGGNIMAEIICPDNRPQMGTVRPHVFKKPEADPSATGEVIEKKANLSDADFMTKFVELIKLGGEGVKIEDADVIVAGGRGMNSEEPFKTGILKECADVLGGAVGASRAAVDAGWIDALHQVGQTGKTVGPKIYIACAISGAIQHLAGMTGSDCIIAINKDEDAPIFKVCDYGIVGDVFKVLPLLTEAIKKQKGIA
Sequence (G0VLZ7 1-383 partner): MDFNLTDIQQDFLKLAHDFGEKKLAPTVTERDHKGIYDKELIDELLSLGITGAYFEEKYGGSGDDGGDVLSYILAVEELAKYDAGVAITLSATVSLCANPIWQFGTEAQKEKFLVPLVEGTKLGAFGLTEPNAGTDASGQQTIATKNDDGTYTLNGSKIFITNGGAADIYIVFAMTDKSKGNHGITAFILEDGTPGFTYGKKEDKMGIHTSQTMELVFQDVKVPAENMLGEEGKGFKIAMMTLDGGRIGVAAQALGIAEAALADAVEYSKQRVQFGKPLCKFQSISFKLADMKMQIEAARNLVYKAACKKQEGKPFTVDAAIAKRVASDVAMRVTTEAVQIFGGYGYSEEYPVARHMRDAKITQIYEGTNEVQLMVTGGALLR
Test: stopped-flow at […] nm, hyperbolic fit of kobs of bf FAD reduction
Format: biochemical
Details: oxidized complex, 6.5 μM; 50 mM Tris-HCl, 150 mM NaCl, pH 7.5, 10 °C; anaerobic; no ferredoxin or crotonyl-CoA; fast phase (bf FAD); read-out: apparent Kd
Assay Readout: pKd
When answering, recall that pKd equals minus log10 of the concentration in mol/L, and write that number alone.

-- ask Name the recorded pKd for `NC(=O)C1=CN([C@@H]2O[C@H](COP(=O)(O)OP(=O)(O)OC[C@H]3O[C@@H](n4cnc5c(N)ncnc54)[C@H](O)[C@@H]3O)[C@@H](O)[C@H]2O)C=CC1` .
-- reply 4.37
